# Test system: LPS-induced NO release in BV2 cells
# Experiment Description: Inhibition of LPS-induced NO release in BV2 cells
# Type: cell-based
# Experimental Setup: Mus musculus, BV-2; BV2 cells, 0.3, 1.0, 3.0 μM, LPS 1 μg/mL 24 h; mean ± SD, n = 3; read-out: IC50 to inhibit LPS-induced NO release
# Description: The BV2 microglial cells were purchased from the China Center for Type Culture Collection, CCTCC (Wuhan, Hubei). BV2 microglia cells were incubated in DMEM media supplemented with 10% (v/v) FBS, 100 U/mL penicillin G and […] streptomycin at 37 °C with 5% CO2. Nitrite, a stable product of nitric oxide, was used to assess NO production. […] The absorbance value was determined at 540 nm, and the corresponding NO content was calculated by using the standard curve. […]
Result Type: IC50 (µM)
Give your result in µM as a bare value.

Example entries and their recorded answers appear below.
[
  {
    "Substance Smiles": "COc1ccc(CC/C=C/C(=O)/C=C/c2ccccc2)cc1",
    "Endpoint Unit": "µM",
    "Observed Measurement": 1.74
  },
  {
    "Substance Smiles": "COc1ccc(/C=C/C(=O)/C=C/CCc2ccc(OC)cc2)cc1",
    "Endpoint Unit": "µM",
    "Observed Measurement": 2.43
  }
]

Query `COc1ccc(/C=C/C(=O)/C=C/CCc2ccccc2)cc1OC` on LPS-induced NO release in BV2 cells; IC50 returned: 1.6

Reference source: paper PMC9181915
